- System: PANC-1 cell line
- test-protocol: solid tumor cell growth inhibition, MTT
- Assay type: cell-based
- measurement-conditions: Homo sapiens; PANC-1, 16 μg/mL compound, 72 h; read-out: IR (cell proliferation inhibition rate)
Mark Yes for reported inhibition at 16 µg/mL of 40% or greater; mark No for anything smaller.

Use these answered entries as a reference point.
compound	answer-label
COC(=O)[C@]12CCC(C)(C)CC1C1=CCC3[C@@]4(C)CC(C(=O)NCCc5cccnc5)C(=O)C(C)(C)C4CC[C@@]3(C)[C@]1(C)CC2 (stereo partly drawn)	No
COC(=O)[C@]12CCC(C)(C)C[C@H]1C1=CC[C@@H]3[C@@]4(C)CC(C(=O)NCC5CC5)C(=O)C(C)(C)[C@@H]4CC[C@@]3(C)[C@]1(C)CC2 (stereo partly drawn)	No
CN1CCN(CCCNC(=O)C2C[C@]3(C)[C@H]4CC=C5[C@@H]6CC(C)(C)CC[C@]6(C(=O)O)CC[C@@]5(C)[C@]4(C)CC[C@H]3C(C)(C)C2=O)CC1 (stereo partly drawn)	No
CCN(CC)CCNC(=O)C1C[C@@]2(C)C(CC[C@]3(C)C2CC=C2C4CC(C)(C)CC[C@]4(C(=O)O)CC[C@]23C)C(C)(C)C1=O (stereo partly drawn)	No
CCN(CC)CCCNC(=O)C1C[C@]2(C)[C@H]3CC=C4[C@@H]5CC(C)(C)CC[C@]5(C(=O)OC)CC[C@@]4(C)[C@]3(C)CC[C@H]2C(C)(C)C1=O (stereo partly drawn)	Yes

With those in mind, consider the next compound.
// query Test whether the compound COC(=O)[C@]12CCC(C)(C)CC1C1=CCC3[C@@]4(C)CC(C(=O)NCCCN5CCN(C)CC5)C(=O)C(C)(C)C4CC[C@@]3(C)[C@]1(C)CC2 (stereo partly drawn) records inhibition at 16 µg/mL of 40% or higher.
// result Yes
